src = ChEMBL document CHEMBL1131493

method.summary: In vivo antitumor efficacy in nude mice by injecting a dose of 25 mg/kg, as HCl salt in saline solution, perorally and the total drug exposure was determined (0-4 hr)
Type: ADME, organism-based
Parameters: time < 4 hr, dose 25 mg/kg, route oral
assay.conditions: mouse, po
quantity: AUC at 4 h (ng·h/mL)
Numbers only, in ng·h/mL.

Answer with reported AUC at 4 h of CN1CCC(CC(=O)N2CCN(C3c4ccc(Cl)cc4CCc4cccnc43)CC2)CC1 (stereo unspecified)
1300

* * *

method.summary: In vivo antitumor efficacy expressed as maximum plasma concentration after a peroral dose of 10 mg/kg in cynomolgus monkeys
Format: ADME, organism-based, Macaca fascicularis
Parameters: dose 10 mg/kg, route oral
assay.conditions: cynomolgus monkey, po
quantity: Cmax (µM)
One number for each entry, in µM.

Specify Cmax for `O=C(Cc1cc[n+]([O-])cc1)N1CCN([C@H]2c3ccc(Cl)cc3CCc3cc(Br)cnc32)CC1` and stop.
8

* * *

Give Time above IC50 for every item shown.
Test system: Mus musculus
method.summary: In vivo antitumor efficacy in nude mice by injecting a dose of 25 mg/kg, as HCl salt in saline solution, perorally and the duration of action was reported
Type: ADME, organism-based
Parameters: dose 25 mg/kg, route oral
assay.conditions: po
One number for each entry, in h.

Some compounds with recorded Time above IC50:
CC(=O)N1CCC(CC(=O)N2CCN(C3c4ccc(Cl)cc4CCc4cc(Br)cnc43)CC2)CC1 (configuration not stated): 2
CN1CCC(CC(=O)N2CCN(C3c4ccc(Cl)cc4CCc4cccnc43)CC2)CC1 (configuration not stated): 4
O=C(CC1CCNCC1)N1CCN(C2c3ccc(Cl)cc3CCc3cc(Br)cnc32)CC1 (configuration not stated): 24
CNC(=O)N1CCC(CC(=O)N2CCN(C3c4ccc(Cl)cc4CCc4cc(Br)cnc43)CC2)CC1 (configuration not stated): 4
CN1CCCC(CC(=O)N2CCN(C3c4ccc(Cl)cc4CCc4cc(Br)cnc43)CC2)C1 (configuration not stated): 24

Give Time above IC50 for all compounds that follow.
1. NC(=O)N1CCC(CC(=O)N2CCN(C3c4ccc(Cl)cc4CCc4cc(Br)cnc43)CC2)CC1 (configuration not stated)
2. O=C(Cc1cccnc1)N1CCN(C2c3ccc(Cl)cc3CCc3cccnc32)CC1 (configuration not stated)

1: 8; 2: 0.3

* * *

method.summary: In vivo antitumor efficacy expressed as plasma area under the curve 0.4 hr after iv dose of 25 mg/kg in nude mice
Type: ADME, organism-based
Set-up: time < 0.4 hr, dose 25 mg/kg, route intravenous
quantity: AUC at 0.4 h (ng·h/mL)
Give bare numbers, in ng·h/mL.

Determine from records and report AUC at 0.4 h for O=C(Cc1ccncc1)N1CCN(C2c3ccc(Cl)cc3CCc3cccnc32)CC1 (stereo unspecified)
1800

* * *

Please go through the items and note down their Time above IC50.
method.summary: In vivo antitumor efficacy peroral dose of 25 mg/kg expressed as duration for which compound was present above IC50
Type: ADME, organism-based
Parameters: dose 25 mg/kg, route oral
assay.conditions: po
Numbers only, in h.

Worked cases, Time above IC50 given:
O=C(Cc1cc[n+]([O-])cc1)N1CCN(C2c3ccc(Cl)cc3CCc3cc(Br)cnc32)CC1 (centres undefined): 6
O=C(Cc1ccc[n+]([O-])c1)N1CCN(C2c3ccc(Cl)cc3CCc3cc(Br)cnc32)CC1 (centres undefined): 6
O=C(Cc1ccncc1)N1CCN(C2c3ccc(Cl)cc3CCc3cc(Br)cnc32)CC1 (centres undefined): 6

Now look at this one.
Indicate the recorded Time above IC50 value for this compound: O=C(Cc1ccncc1)N1CCN(C2c3ccc(Cl)cc3CCc3cccnc32)CC1 (centres undefined)
1

* * *

Provide the recorded IC50 for the entries that follow.
assay.system: Protein farnesyltransferase (Homo sapiens, UniProt P49354+P49356)
method.summary: In vitro inhibition of farnesyltransferase farnesylation of the H-ras oncogene
Format: protein-complex assay
Answers are plain numbers, in nM.

CC(S)C(=O)NCC(=O)N1CCN(C2c3ccc(Cl)cc3CCc3cccnc32)CC1 (centres undefined): 2780
CN1CCC(CC(=O)N2CCN(C3c4ccc(Cl)cc4CCc4c(Cl)ccnc43)CC2)CC1 (centres undefined): 450
O=C(Oc1cccnc1)N1CCN(C2c3ccc(Cl)cc3CCc3cccnc32)CC1 (centres undefined): 500
NC(=O)N1CCCC2C(C(=O)N3CCN(C4c5ccc(Cl)cc5CCc5cc(Br)cnc54)CC3)CCCC21 (centres undefined): 1400
O=C(Nc1cccnc1)N1CCN([C@@H]2c3ccc(Cl)cc3CCc3cccnc32)CC1: 3200

State the recorded IC50 for every item in the following list.
1. O=C(Oc1ccc[n+]([O-])c1)N1CCN(C2c3ccc(Cl)cc3CCc3cccnc32)CC1 (centres undefined)
2. CN1CCC(CC(=O)N2CCN([C@H]3c4ccc(Cl)cc4CCc4cccnc43)CC2)CC1
3. O=C(Cc1cc[n+]([O-])cc1)N1CCN(C2c3ccc(Cl)cc3CCc3c(Cl)ccnc32)CC1 (centres undefined)
4. CC(=O)N1CCC(CC(=O)N2CCN([C@@H]3c4ccc(Cl)cc4CCc4cccnc43)CC2)CC1
5. O=C(CC1CCNCC1)N1CCN(C2c3ccc(Cl)cc3CCc3cccnc32)CC1 (centres undefined)
6. O=C(Cc1ccncc1)N1CCN(C2c3ccc(Cl)cc3CCc3cc(Br)cnc32)CC1 (centres undefined)
7. CN1CCCC(NC(=O)N2CCN(C3c4ccc(Cl)cc4CCc4cccnc43)CC2)C1 (centres undefined)
8. O=C(c1cccc2cccnc12)N1CCN(C2c3ccc(Cl)cc3CCc3cc(Br)cnc32)CC1 (centres undefined)

1. 3100
2. 640
3. 330
4. 3500
5. 1250
6. 12
7. 660
8. 1800

// each listed compound needs a value for IC50
1. CC(=O)N1CCCC(CC(=O)N2CCN(C3c4ccc(Cl)cc4CCc4cccnc43)CC2)C1 (centres undefined)
2. NCNC(=O)N1CCC(CC(=O)N2CCN(C3c4ccc(Cl)cc4CCc4cccnc43)CC2)CC1 (centres undefined)
3. O=C(/C=C/c1cccnc1)N1CCN(C2c3ccc(Cl)cc3CCc3cccnc32)CC1 (centres undefined)
4. O=C(CC1CCCNC1)N1CCN(C2c3ccc(Cl)cc3CCc3cccnc32)CC1 (centres undefined)

3100
2500
2600
1100

// for each compound below, give its IC50
1. CN1CCCC(OC(=O)N2CCN(C3c4ccc(Cl)cc4CCc4cc(Br)cnc43)CC2)C1 (centres undefined)
2. COC(=O)N1CCC(CC(=O)N2CCN(C3c4ccc(Cl)cc4CCc4cccnc43)CC2)CC1 (centres undefined)

1. 300
2. 1300

* * *

method.summary: In vivo antitumor efficacy in nude mice by injecting a dose of 25 mg/kg, as HCl salt in saline solution, iv and the total drug exposure was determined. (0-24hr)
Format: ADME, organism-based
Parameters: time < 24 hr, dose 25 mg/kg, route intravenous
assay.conditions: mouse
For each entry below, report its log10 AUC at 24 h value.
Heads up, the numbers here are log10 of AUC at 24 h in ng·h/mL units.

Please review the entries below; each comes with its answer.
CNC(=O)N1CCC(CC(=O)N2CCN(C3c4ccc(Cl)cc4CCc4cc(Br)cnc43)CC2)CC1 (stereo not given): 4.00
O=C(Cc1cc[n+]([O-])cc1)N1CCN([C@H]2c3ccc(Cl)cc3CCc3cccnc32)CC1: 4.33
CN1CCCC(CC(=O)N2CCN(C3c4ccc(Cl)cc4CCc4cc(Br)cnc43)CC2)C1 (stereo not given): 4.17
O=C(Cc1cccnc1)N1CCN(C2c3ccc(Cl)cc3CCc3cccnc32)CC1 (stereo not given): 3.04

Pending compound:
Return the recorded log10 AUC at 24 h value; entry: O=C(CC1CCNCC1)N1CCN(C2c3ccc(Cl)cc3CCc3cc(Br)cnc32)CC1 (stereo not given)
4.43

* * *

method.summary: Maximal plasma concentration in nude mice after 25 mg/kg oral dose
Type: ADME, organism-based
Parameters: dose 25 mg/kg, route oral
assay.conditions: mouse
Consider the following compounds; for each one, report its log10 Cmax.
// stored as log10 of Cmax expressed in µM

O=C(Cc1cc[n+]([O-])cc1)N1CCN([C@@H]2c3ccc(Cl)cc3CCc3cc(Br)cnc32)CC1: 1.40
O=C(Cc1ccc[n+]([O-])c1)N1CCN(C2c3ccc(Cl)cc3CCc3cccnc32)CC1 (configuration not stated): 1.08
O=C(Cc1ccc[n+]([O-])c1)N1CCN(C2c3ccc(Cl)cc3CCc3cc(Br)cnc32)CC1 (configuration not stated): 1.66
O=C(Cc1cc[n+]([O-])cc1)N1CCN([C@H]2c3ccc(Cl)cc3CCc3cc(Br)cnc32)CC1: 1.39
CC(C)(C(=O)N1CCN(C2c3ccc(Cl)cc3CCc3cc(Br)cnc32)CC1)c1ccc[n+]([O-])c1 (configuration not stated): 1.04
O=C(Cc1cc[n+]([O-])cc1)N1CCN([C@H]2c3ccc(Cl)cc3CCc3cccnc32)CC1: 1.00
O=C(Cc1cc[n+]([O-])cc1)N1CCN(C2c3ccc(Cl)cc3CCc3cc(Br)cnc32)CC1 (configuration not stated): 1.00
COCC[C@H]1CN(C2c3ccc(Cl)cc3CCc3cc(Br)cnc32)CCN1C(=O)Cc1cc[n+]([O-])cc1 (some centres not stated): 0.95

# batch: return log10 Cmax for each of the 3 compounds below
1. CCCC[C@H]1CN(C2c3ccc(Cl)cc3CCc3cc(Br)cnc32)CCN1C(=O)Cc1cc[n+]([O-])cc1 (some centres not stated)
2. O=C(Cc1ccncc1)N1CCN(C2c3ccc(Cl)cc3CCc3cc(Br)cnc32)CC1 (configuration not stated)
3. O=C(Cc1cc[n+]([O-])cc1)N1CCN([C@@H]2c3ccc(Cl)cc3CCc3cccnc32)CC1

[1.06, -0.05, 0.48]

Give the measured log10 Cmax for O=C(Cc1ccncc1)N1CCN(C2c3ccc(Cl)cc3CCc3cccnc32)CC1 (configuration not stated)
-0.05
